Tested on: T-cell
Assay: CD25 cell surface staining on T-cells co-stimulated with anti-CD3 and anti-CD28 antibody (Biological Example 2)
Type: cell-based, human
Conditions: Homo sapiens, T-cell; 1 μM Cbl-b inhibitor; fold change over baseline (anti-CD3/anti-CD28 stimulated T-cells without inhibitor); read-out: CD25 staining Anti-CD3/Anti-CD28 stimulation
Measured fold induction at 1 µM values are reported for all entries that follow.

>  <Compound>
Cn1cnnc1CC1(c2cccc(N3Cc4c(cc(N5CC(C(F)F)C5)nc4C4CC4)C3=O)c2)COC1 [Example 609]

>  <fold induction at 1 µM>
1.01 to 1.3

$$$$
>  <Compound>
Cn1cnnc1CC1(c2cccc(NC(=O)c3cc(CN4CCCCC4)nc(C4CC4)n3)c2)COC1 [Example 589]

>  <fold induction at 1 µM>
> 1.76

$$$$
>  <Compound>
Cn1cnnc1CC1(c2cccc(N3Cc4c(cc(CN5CCC6CC6C5)cc4C(F)(F)F)C3=O)c2)COC1 (stereo not drawn) [Example 646]

>  <fold induction at 1 µM>
1.31 to 1.5

$$$$
>  <Compound>
Cn1cnnc1[C@@H](F)C1(c2cccc(N3Cc4c(cc(CN5CCCC5)cc4C(F)(F)F)C3=O)c2)COC1 [Example 673a]

>  <fold induction at 1 µM>
> 1.76

$$$$
>  <Compound>
C[C@@H]1CCN(Cc2cc3c(c(C(F)(F)F)c2)CN(c2cccc(C4(Cc5nncn5C)COC4)c2)C3=O)C[C@H]1F (relative stereo) [Example 631]

>  <fold induction at 1 µM>
1.51 to 1.75

$$$$
>  <Compound>
Cn1cnnc1CC1(c2cccc(N3Cc4c(cc(CN5CCC(F)(F)CC5)cc4C(F)(F)F)C3=O)c2)COC1 [Example 633]

>  <fold induction at 1 µM>
1.31 to 1.5

$$$$
>  <Compound>
Cn1cnnc1CC1(c2cccc(NC(=O)c3cc(N4CC(C(F)F)C4)nc(C4CC4)n3)c2)COC1 [Example 610]

>  <fold induction at 1 µM>
1.01 to 1.3

$$$$
>  <Compound>
Cn1cnnc1CC1(c2cccc(N3Cc4c(cc(CN5Cc6ccc(F)cc6C5)cc4C(F)(F)F)C3=O)c2)COC1 [Example 655]

>  <fold induction at 1 µM>
1.31 to 1.5

$$$$
>  <Compound>
Cn1cnnc1CC1(c2cccc(N3Cc4c(cc(CN5CCC(C)(C#N)CC5)cc4C(F)(F)F)C3=O)c2)COC1 [Example 642]

>  <fold induction at 1 µM>
1.31 to 1.5

$$$$
>  <Compound>
CC1CN(c2cc3c(c(C(F)(F)F)c2)CN(c2cccc(C4(Cc5nncn5C)COC4)c2)C3=O)C1 [Example 607]

>  <fold induction at 1 µM>
1.01 to 1.3

$$$$
>  <Compound>
Cn1cnnc1CC1(c2cccc(N3Cc4c(cc(CN5Cc6cccnc6C5)cc4C(F)(F)F)C3=O)c2)COC1 [Example 660]

>  <fold induction at 1 µM>
1.31 to 1.5

$$$$
>  <Compound>
Cn1cnnc1CC1(c2cccc(N3Cc4c(cc(CN5CCCC5)nc4C4CC4)C3=O)c2)COC1 [Example 579]

>  <fold induction at 1 µM>
1.01 to 1.3

$$$$
>  <Compound>
Cn1cnnc1CC1(c2cccc(N3Cc4c(cc(N5CC(C(F)F)C5)cc4C(F)(F)F)C3=O)c2)COC1 [Example 594]

>  <fold induction at 1 µM>
1.01 to 1.3

$$$$
>  <Compound>
Cn1cnnc1CC1(c2cccc(N3Cc4c(cc(C5CN6CCC5CC6)cc4C(F)(F)F)C3=O)c2)COC1 (stereo not drawn) [Example 560]

>  <fold induction at 1 µM>
1.01 to 1.3

$$$$
>  <Compound>
Cc1cc(C(=O)Nc2cc(C3CC3)cc(C3(Cc4nncn4C)COC3)c2)nc(C2CC2)n1 [Example 698]

>  <fold induction at 1 µM>
1.31 to 1.5

$$$$
>  <Compound>
C[C@H](Cc1nncn1C)c1cc(-c2cncs2)nc(N2Cc3c(cccc3C(F)(F)F)C2=O)c1 [Example 682]

>  <fold induction at 1 µM>
1.01 to 1.3

$$$$
>  <Compound>
CC(c1cc(C(=O)Nc2cccc(C3(Cc4nncn4C)COC3)c2)nc(C2CC2)n1)N1CCC2(CC2)C1 (stereo in doubt) [Example 592a]

>  <fold induction at 1 µM>
1.01 to 1.3

$$$$
>  <Compound>
Cn1cnnc1CC1(c2cccc(N3Cc4c(cc(N5CCNC6(CC6)C5)cc4C(F)(F)F)C3=O)c2)COC1 [Example 582]

>  <fold induction at 1 µM>
1.31 to 1.5

$$$$
>  <Compound>
Cn1cnnc1CC1(c2cccc(N3Cc4c(cc(CN5CCCC(F)(F)C5)cc4C(F)(F)F)C3=O)c2)COC1 [Example 693]

>  <fold induction at 1 µM>
1.51 to 1.75

$$$$
>  <Compound>
Cn1cnnc1CC1(c2cccc(N3Cc4c(cc(C5=CCOC5)cc4C(F)(F)F)C3=O)c2)COC1 [Example 612]

>  <fold induction at 1 µM>
1.31 to 1.5

$$$$
>  <Compound>
CCOc1cc(NC(=O)c2cc(C)nc(C3CC3)n2)cc(C2(Cc3nncn3C)COC2)c1 [Example 690]

>  <fold induction at 1 µM>
1.01 to 1.3

$$$$
>  <Compound>
CN1C[C@H]2C[C@@H]1CN2c1cc2c(c(C(F)(F)F)c1)CN(c1cccc([C@@](C)(F)C(F)(F)c3nncn3C)c1)C2=O [Example 562]

>  <fold induction at 1 µM>
1.51 to 1.75

$$$$
>  <Compound>
Cn1cnnc1CC1(c2cccc(N3Cc4c(cc(CN5CCC6(CC6)C(F)(F)C5)cc4C(F)(F)F)C3=O)c2)COC1 [Example 636]

>  <fold induction at 1 µM>
1.31 to 1.5

$$$$
>  <Compound>
Cn1cnnc1CC1(c2cccc(N3Cc4c(ccc(F)c4C4CC4)C3=O)c2)COC1 [Example 577]

>  <fold induction at 1 µM>
1.01 to 1.3

$$$$
>  <Compound>
Cn1cnnc1CC1(c2cccc(N3Cc4c(cc(CN5CC6CC5CO6)cc4C(F)(F)F)C3=O)c2)COC1 (stereo not drawn) [Example 619]

>  <fold induction at 1 µM>
1.01 to 1.3

$$$$
>  <Compound>
C[C@H](c1cc2c(c(C(F)(F)F)c1)CN(c1cccc(C3(Cc4nncn4C)COC3)c1)C2=O)N1CC(F)C1 [Example 668a]

>  <fold induction at 1 µM>
1.51 to 1.75

$$$$
>  <Compound>
Cn1cnnc1CC1(c2cccc(N3Cc4c(cc(CN5CCC(C#N)CC5)cc4C(F)(F)F)C3=O)c2)COC1 [Example 628]

>  <fold induction at 1 µM>
1.31 to 1.5

$$$$
>  <Compound>
C[C@H](c1cc2c(c(C(F)(F)F)c1)CN(c1cccc(C3([C@H](F)c4nncn4C)COC3)c1)C2=O)N1CCC2(CC2)C1 (stereo in doubt) [Example 575]

>  <fold induction at 1 µM>
1.31 to 1.5

$$$$
>  <Compound>
Cn1cnnc1CC1(c2cccc(N3Cc4c(cc(N5CCC(C(F)F)C5)cc4C(F)(F)F)C3=O)c2)COC1 (stereo not drawn) [Example 601]

>  <fold induction at 1 µM>
1.01 to 1.3

$$$$
>  <Compound>
Cn1cnnc1CC1(c2cccc(N3Cc4c(cc(N5CC6(CCC6(F)F)C5)cc4C(F)(F)F)C3=O)c2)COC1 [Example 603]

>  <fold induction at 1 µM>
1.01 to 1.3

$$$$
